TEST SYSTEM: binding partner of C5A (XPA23)
EXPERIMENT SUMMARY: Biacore
MEASURE NAME: log10 fold affinity vs original (log10 of the value in fold)

BINDER	log10 fold affinity vs original
C5A (XPA23) VH P53F (antibody, V domains shown) VH: EVQLLESGGGLVQPGGSLRLSCAASGFTFSKYFMFWVRQAPGKGLEWVSVISFSGGMTRYADSVKGRFTISRDNSKNTLYLQMNSLRAEDTAVYYCARVGYGGNSDYWGQGTLVTVSS VL: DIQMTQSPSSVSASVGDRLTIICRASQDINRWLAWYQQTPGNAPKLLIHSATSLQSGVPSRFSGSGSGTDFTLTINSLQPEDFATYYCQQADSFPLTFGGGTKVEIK	-1.30
C5A (XPA23) VH G55K (antibody, V domains shown) VH: EVQLLESGGGLVQPGGSLRLSCAASGFTFSKYFMFWVRQAPGKGLEWVSVISPSKGMTRYADSVKGRFTISRDNSKNTLYLQMNSLRAEDTAVYYCARVGYGGNSDYWGQGTLVTVSS VL: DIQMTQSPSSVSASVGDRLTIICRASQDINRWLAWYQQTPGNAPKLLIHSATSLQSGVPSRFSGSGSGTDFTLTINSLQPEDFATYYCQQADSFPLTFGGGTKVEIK	-0.96
C5A (XPA23) VH G56Y (antibody, V domains shown) VH: EVQLLESGGGLVQPGGSLRLSCAASGFTFSKYFMFWVRQAPGKGLEWVSVISPSGYMTRYADSVKGRFTISRDNSKNTLYLQMNSLRAEDTAVYYCARVGYGGNSDYWGQGTLVTVSS VL: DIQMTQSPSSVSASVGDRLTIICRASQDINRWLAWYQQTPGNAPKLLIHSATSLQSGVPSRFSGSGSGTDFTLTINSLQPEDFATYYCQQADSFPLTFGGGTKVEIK	0.10
C5A (XPA23) VH T58S (antibody, V domains shown) VH: EVQLLESGGGLVQPGGSLRLSCAASGFTFSKYFMFWVRQAPGKGLEWVSVISPSGGMSRYADSVKGRFTISRDNSKNTLYLQMNSLRAEDTAVYYCARVGYGGNSDYWGQGTLVTVSS VL: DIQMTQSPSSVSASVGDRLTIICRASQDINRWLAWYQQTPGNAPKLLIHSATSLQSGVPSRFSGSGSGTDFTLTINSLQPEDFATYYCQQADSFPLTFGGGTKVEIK	-0.09
C5A (XPA23) VH P53Y (antibody, V domains shown) VH: EVQLLESGGGLVQPGGSLRLSCAASGFTFSKYFMFWVRQAPGKGLEWVSVISYSGGMTRYADSVKGRFTISRDNSKNTLYLQMNSLRAEDTAVYYCARVGYGGNSDYWGQGTLVTVSS VL: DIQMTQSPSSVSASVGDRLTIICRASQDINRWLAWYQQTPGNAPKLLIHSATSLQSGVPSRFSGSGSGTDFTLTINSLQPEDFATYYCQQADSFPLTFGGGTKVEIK	-1.52
